- Procedure Summary: AUC (0 to infinity) in BALB/c mouse at 10 mg/kg,po administration measured upto 24 hrs by LC-MS/MS analysis
- Format: ADME, organism-based
- Study Conditions: BALB/c, in vivo
Measured Property: AUC(0-inf) (ng·h/mL)
Answers are plain numbers, in ng·h/mL.

Field AUC(0-inf) (entry CC(=O)NC[C@@H]1OC(=O)N2Cc3cc(-c4ccc(C#N)cc4)c(F)cc3O[C@@H]12 ) reads 83500

----------
- Procedure Summary: Metabolic stability in ICR mouse liver microsomes assessed as substrate remaining at 10 uM incubated for 60 mins in presence of NADPH by LC-MS/MS analysis
- Assay type: ADME, Microsome
- Study Conditions: read-out: Stability
Measured Property: remaining at 1 h, 10 µM (%)
Answers are plain numbers, in %.

Cc1ncc2n1-c1ccc(Cl)cc1C(c1ccccc1F)=NC2 [MIDAZOLAM] ... 48.9
COC(=O)NC[C@@H]1OC(=O)N2Cc3cc(-c4ccc(C#N)nc4)c(F)cc3O[C@@H]12 ... 116
CC(=O)NC[C@@H]1OC(=O)N2Cc3cc(-c4ccc(C#N)cc4)c(F)cc3O[C@@H]12 ... 100

# map each compound to its remaining at 1 h, 10 µM
1. COC(=O)NC[C@@H]1OC(=O)N2Cc3cc(-c4ccc(C#N)cc4)c(F)cc3O[C@@H]12
2. COC(=O)NC[C@@H]1OC(=O)N2Cc3cc(-c4ccc(-c5nnn(C)n5)nc4)c(F)cc3O[C@@H]12

1. 114
2. 102

----------
Would you mind telling me the reported AUC(0-t) at 24 h of each entry?
- Procedure Summary: AUC (0 to t) in BALB/c mouse at 1 mg/kg,iv administration measured upto 24 hrs by LC-MS/MS analysis
- Type: ADME, organism-based
- Study Conditions: in vivo
Numbers only, in ng·h/mL.

COC(=O)NC[C@@H]1OC(=O)N2Cc3cc(-c4ccc(C#N)cc4)c(F)cc3O[C@@H]12 ... 6810

# next compound below
Field AUC(0-t) at 24 h (entry CC(=O)NC[C@@H]1OC(=O)N2Cc3cc(-c4ccc(C#N)cc4)c(F)cc3O[C@@H]12 ) reads 5120

----------
- Tested on: Staphylococcus aureus
- Procedure Summary: Antibacterial activity against Staphylococcus aureus ATCC25923 assessed as inhibition of bacterial growth incubated for 18 hrs by microdilution broth assay
- Format: functional
MIC strictly under 8 µg/mL means y; at 8 µg/mL or over means n.

Some solved cases for reference:
CC(=O)NC[C@@H]1OC(=O)N2Cc3c(cc(F)c(-c4ccc(C#N)nc4)c3F)O[C@@H]12 ... y
COC(=O)NC[C@@H]1OC(=O)N2Cc3cc(-c4ccc(C#N)cc4)c(F)cc3O[C@@H]12 ... y
COC(=O)NC[C@@H]1OC(=O)N2Cc3cc(-c4ccc(C(C)=O)cc4)c(F)cc3O[C@@H]12 ... n
N#Cc1ccc(-c2c(F)cc3c(c2F)CN2C(=O)O[C@@H](CN)[C@@H]2O3)cn1 ... n
COc1ccc(-c2c(F)cc3c(c2F)CN2C(=O)O[C@@H](CN)[C@@H]2O3)cn1 ... n
CC(=O)NC[C@H]1OC(=O)N2Cc3cc(-c4ccc(-c5nnn(C)n5)nc4)c(F)cc3O[C@@H]12 ... y
CC(=O)NC[C@@H]1OC(=O)N2Cc3c(cc(F)c(-c4ccc(C(C)=O)cc4)c3F)O[C@@H]12 ... y

Please state whether MIC is below 8 µg/mL for CC(=O)NC[C@@H]1OC(=O)N2Cc3cc(-c4ccc(C(F)(F)F)nc4)c(F)cc3O[C@@H]12
n

----------
- Procedure Summary: Terminal half life in BALB/c mouse at 1 mg/kg,iv administration measured upto 24 hrs by LC-MS/MS analysis
- Format: ADME, organism-based
- Study Conditions: in vivo, read-out: beta t1/2 (converted)
Measured Property: half-life (h)
Answers are plain numbers, in h.

COC(=O)NC[C@@H]1OC(=O)N2Cc3cc(-c4ccc(C#N)cc4)c(F)cc3O[C@@H]12 ... 3.9

# next compound below
Field half-life (entry CC(=O)NC[C@@H]1OC(=O)N2Cc3cc(-c4ccc(C#N)cc4)c(F)cc3O[C@@H]12 ) reads 7.9

----------
Would you mind telling me the reported MIC of each entry?
- System: Staphylococcus aureus
- Procedure Summary: Antibacterial activity against Staphylococcus aureus ATCC25923 assessed as inhibition of bacterial growth incubated for 18 hrs by microdilution broth assay
- Type: functional
Numbers only, in µg/mL.

// worked examples, MIC included
CC(=O)NC[C@H]1OC(=O)N2Cc3cc(-c4ccc(C#N)nc4)c(F)cc3O[C@@H]12 ... 0.125
COC(=O)NC[C@@H]1OC(=O)N2Cc3cc(-c4ccc(C#N)nc4)c(F)cc3O[C@@H]12 ... 8
COc1cc(-c2cc3c(cc2F)O[C@H]2[C@H](CNC(C)=O)OC(=O)N2C3)ccn1 ... 4
CC(=O)NC[C@@H]1OC(=O)N2Cc3c(cc(F)c(-c4ccc(C#N)cc4)c3F)O[C@@H]12 ... 2

# map each molecule to its MIC
1. CC(=O)c1ccc(-c2c(F)cc3c(c2F)CN2C(=O)O[C@@H](CN)[C@@H]2O3)cc1
2. COC(=O)NC[C@@H]1OC(=O)N2Cc3cc(-c4ccc(-c5nnn(C)n5)nc4)c(F)cc3O[C@@H]12
3. COc1ccc(-c2c(F)cc3c(c2F)CN2C(=O)O[C@@H](CNC(C)=O)[C@@H]2O3)cn1

1. 64
2. 4
3. 8

----------
- Procedure Summary: MRT (0 to t) in BALB/c mouse at 10 mg/kg,po administration measured upto 24 hrs by LC-MS/MS analysis
- Assay type: ADME, organism-based
- Study Conditions: in vivo
Would you mind telling me the reported MRT last at 24 h of each entry?
Answers are plain numbers, in h.

COC(=O)NC[C@@H]1OC(=O)N2Cc3cc(-c4ccc(C#N)cc4)c(F)cc3O[C@@H]12 ... 11.3

# next compound below
Field MRT last at 24 h (entry CC(=O)NC[C@@H]1OC(=O)N2Cc3cc(-c4ccc(C#N)cc4)c(F)cc3O[C@@H]12 ) reads 9.3

----------
Would you mind telling me the reported IC50 at 48 h of each entry?
- Procedure Summary: Cytotoxicity against African green monkey Vero cells incubated for 48 hrs by MTT assay
- Type: toxicity, cell-based, Chlorocebus sabaeus
Numbers only, in µg/mL.

COC(=O)NC[C@@H]1OC(=O)N2Cc3cc(-c4ccc(-c5nnn(C)n5)nc4)c(F)cc3O[C@@H]12 ... 37

# next compound below
Field IC50 at 48 h (entry COC(=O)NC[C@@H]1OC(=O)N2Cc3cc(-c4ccc(C#N)nc4)c(F)cc3O[C@@H]12 ) reads 33
